# assay: Lipophilicity, log P of the compound at pH 7.4
# Format: physicochemical
# settings: buffer, read-out: logP
Hi! Could you tag entries with logP below 6 as 1 (yes), and those at or above as 0 (no)? Much appreciated.

1. Cc1ccc(-c2nc(CNc3ccnc4cc(Cl)ccc34)[nH]c2CN2CCCC2)cc1 ... 0 (no)
2. Clc1ccc2c(NCc3nc4ccccc4[nH]3)ccnc2c1 ... 1 (yes)
3. Clc1ccc2c(NCc3nc(-c4ccccc4)c[nH]3)ccnc2c1 ... 1 (yes)
4. Fc1ccc(-c2nc(CNc3ccnc4cc(Cl)ccc34)[nH]c2CN2CCCC2)cc1 ... 0 (no)
